biological target: Dual specificity tyrosine-phosphorylation-regulated kinase 1A (Homo sapiens, UniProt Q13627); assay: Inhibition of human recombinant GST-tagged DYRK1A expressed in Escherichia coli
resultType: IC50

// query Give me measured IC50, please, for this molecule: COc1cc(NC(=O)Nc2cccc3c2[C@@H]2C[C@H](O)CCN2C3=O)nc2ccccc12 (relative stereo)
// result > 10 µM

// query Give me measured IC50, please, for this molecule: CO[C@@H]1CCN2C(=O)c3cccc(NC(=O)Nc4ccccn4)c3[C@@H]2C1 (relative stereo)
// result > 10 µM

// query Give me measured IC50, please, for this molecule: O=C(Nc1cnccn1)Nc1cccc2c1[C@@H]1C[C@H](O)CCN1C2=O (relative stereo)
// result > 10 µM

// query Give me measured IC50, please, for this molecule: CO[C@@H]1CCN2C(=O)c3cccc(NC(=O)Nc4ccn(C)n4)c3[C@@H]2C1 (relative stereo)
// result > 10 µM
